systemTested: human Siglec-7 on primary human monocyte-derived dendritic cells (human, UniProt Q9Y286 19-467)
Sequence (Q9Y286 19-467): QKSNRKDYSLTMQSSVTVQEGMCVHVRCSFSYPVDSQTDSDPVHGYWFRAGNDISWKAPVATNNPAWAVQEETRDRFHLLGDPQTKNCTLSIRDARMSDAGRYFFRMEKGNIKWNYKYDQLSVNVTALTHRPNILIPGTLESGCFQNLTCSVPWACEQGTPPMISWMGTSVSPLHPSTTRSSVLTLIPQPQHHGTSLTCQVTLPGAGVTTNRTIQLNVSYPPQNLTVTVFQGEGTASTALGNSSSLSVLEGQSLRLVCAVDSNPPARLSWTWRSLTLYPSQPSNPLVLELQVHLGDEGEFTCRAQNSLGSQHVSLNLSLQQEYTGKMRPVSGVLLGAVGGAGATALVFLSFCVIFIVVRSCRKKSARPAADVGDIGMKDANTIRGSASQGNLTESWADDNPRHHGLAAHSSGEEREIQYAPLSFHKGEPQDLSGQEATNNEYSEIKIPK
measurementProtocol: cell-based or functional assay
outcomeMeasure: Maximal downregulation (% Siglec-7 remaining) (%)
Express your answer in %, writing the number without its unit.

[
  {
    "binder": "S7AB-H8.45.1 (antibody, V domains shown) VH: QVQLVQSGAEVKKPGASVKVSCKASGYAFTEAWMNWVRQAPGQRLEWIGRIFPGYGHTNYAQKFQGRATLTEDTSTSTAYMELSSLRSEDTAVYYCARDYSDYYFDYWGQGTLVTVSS VL: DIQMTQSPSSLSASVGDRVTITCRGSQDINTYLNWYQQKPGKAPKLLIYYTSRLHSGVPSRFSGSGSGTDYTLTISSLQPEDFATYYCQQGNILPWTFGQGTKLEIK",
    "quantitativeResult": 7.8
  }
]

Maximal downregulation (% Siglec-7 remaining) measured on S7AB-H8.45 (antibody, V domains shown) VH: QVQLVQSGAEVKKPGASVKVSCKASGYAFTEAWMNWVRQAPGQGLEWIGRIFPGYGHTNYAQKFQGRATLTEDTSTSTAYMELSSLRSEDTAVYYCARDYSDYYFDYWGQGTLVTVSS VL: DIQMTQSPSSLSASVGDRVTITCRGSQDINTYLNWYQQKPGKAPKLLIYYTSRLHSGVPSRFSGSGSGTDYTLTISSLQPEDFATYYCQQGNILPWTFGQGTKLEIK = 6.9

// Maximal downregulation (% Siglec-7 remaining) value for S7AB-H8.45.2 (antibody, V domains shown) VH: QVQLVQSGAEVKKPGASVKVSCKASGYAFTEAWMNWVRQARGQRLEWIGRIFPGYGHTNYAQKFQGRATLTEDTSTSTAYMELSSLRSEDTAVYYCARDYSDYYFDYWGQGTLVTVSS VL: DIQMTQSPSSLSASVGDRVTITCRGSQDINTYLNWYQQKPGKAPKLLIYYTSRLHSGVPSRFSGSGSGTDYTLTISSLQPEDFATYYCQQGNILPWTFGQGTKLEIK : 8.7

Lab note: measured Maximal downregulation (% Siglec-7 remaining) of S7AB-H8.34 (antibody, V domains shown) VH: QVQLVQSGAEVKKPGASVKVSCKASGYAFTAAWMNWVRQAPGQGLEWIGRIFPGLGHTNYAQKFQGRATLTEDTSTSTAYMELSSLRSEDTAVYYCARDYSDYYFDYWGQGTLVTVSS VL: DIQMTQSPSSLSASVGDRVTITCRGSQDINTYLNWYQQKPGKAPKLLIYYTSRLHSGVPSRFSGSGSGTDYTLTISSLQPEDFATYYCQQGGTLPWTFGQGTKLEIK was 3.6

The measured Maximal downregulation (% Siglec-7 remaining) associated with S7AB-H8.30.2 (antibody, V domains shown) VH: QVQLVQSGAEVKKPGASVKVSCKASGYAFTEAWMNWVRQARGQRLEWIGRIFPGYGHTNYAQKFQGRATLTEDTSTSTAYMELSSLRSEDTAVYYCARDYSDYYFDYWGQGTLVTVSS VL: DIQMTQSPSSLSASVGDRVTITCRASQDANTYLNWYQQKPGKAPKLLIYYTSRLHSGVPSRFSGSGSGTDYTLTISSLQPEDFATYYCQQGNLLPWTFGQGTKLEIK reads 10.1
